Hi there, I'd appreciate the recorded Activity for every entry that follows.
species: Sus scrofa; test: Inhibition of porcine kidney tissue non-specific alkaline phosphatase assessed as residual enzyme activity at 0.4 mM in presence of 4% DMSO at pH 10.4 at 37 degC relative to untreated control
Answers are plain numbers, in %.

Solved entries:
CN(C)c1ccc(-c2sc3ccccc3c2C#N)cc1    83
FC(F)c1c(-c2ccccc2)sc2ccccc12    90
O=[N+]([O-])c1cc(Cl)ccc1-c1cc2ccccc2s1    93
N#Cc1ccc(Oc2csc3ccccc23)cc1    85
O=Cc1c(-c2ccccc2[N+](=O)[O-])sc2ccccc12    78

Return reported Activity values for all items listed beneath this line.
1. COc1ccccc1C(=O)c1c(-c2ccccc2[N+](=O)[O-])sc2ccccc12
2. [O-][s+]1cc(Oc2ccc(F)cc2)c2ccccc21 (stereo not given)
3. c1ccc(-c2cc3ccccc3s2)nc1
4. CN1CCN(c2c[s+]([O-])c3ccccc23)CC1 (stereo not given)
5. NCc1c(-c2cccnc2)sc2ccccc12

1. 98
2. 79
3. 94
4. 95
5. 111

Return reported Activity values for all items listed beneath this line.
1. Clc1ccc(Oc2csc3ccccc23)cc1
2. O=Cc1c(-c2cccc(Cl)c2)sc2ccccc12
3. COc1ccc(-c2sc3ccccc3c2N2CCCCC2)cc1
4. COc1ccc(-c2sc3ccccc3c2C(=O)c2ccccc2OC)c([N+](=O)[O-])c1
5. COc1ccc(-c2sc3ccccc3c2C(=O)c2cc(OC)c(O)c(OC)c2)c([N+](=O)[O-])c1
6. COc1ccc(-c2sc3ccccc3c2CN)c(OC)c1OC
7. [O-][s+]1cc(Oc2ccc(Cl)cc2)c2ccccc21 (stereo not given)

1. 94
2. 95
3. 91
4. 111
5. 95
6. 94
7. 103

Where do the numbers come from? From ChEMBL document CHEMBL1152630.
